- Tested on: dandelions
- measurement-protocol: Example 16 metal salts of EDTA, greenhouse dandelion mortality
- Format: in vivo, Taraxacum officinale
- applied-conditions: day 10 (re-sprayed after 7 days); pH 7
measured-quantity: Dead Dandelion (#/20)

Example entries begin here.
[Cl][Fe]([Cl])[Cl] [FeCl3 (0.4% Fe), ferric chloride] : 0 #/20
O=C([O-])CN(CCN(CC(=O)O)CC(=O)O)CC(=O)[O-].[Cu+2] [Cu EDTA (0.4% Cu)] : 4 #/20
O=C([O-])CN(CCN(CC(=O)O)CC(=O)O)CC(=O)[O-].[Zn+2] [Zn EDTA (0.4% Zn)] : 0 #/20

Query :: Fill: Dead Dandelion (#/20) (dandelions) for this compound O=C([O-])CN(CCN(CC(=O)[O-])CC(=O)O)CC(=O)[O-].[Al+3] [Al EDTA (0.4% Al)]
Result :: 0 #/20
